# target: Dopamine beta-hydroxylase (Bos taurus)
# assayInfo: Kinact value is determined from a plot of log(percent enzyme activity remaining) vs times
measuredProperty: K inact (min⁻¹)
The answer is to be given in min⁻¹; state only the numeric part.

Please give the measured K inact for this compound: C#CC(CN)c1ccc(O)cc1 (stereo in doubt; (+\-)3)
0.023

* * *

# target: Dopamine beta-hydroxylase (Bos taurus)
# assayInfo: Kinact value is determined from a plot of log(percent enzyme activity remaining) vs times
measuredProperty: K inact (min⁻¹)
The answer is to be given in min⁻¹; state only the numeric part.

Known results for molecules:
>>> obsvalue("Oc1ccc(CC2CC2)cc1")
1.8
>>> obsvalue("C=C(CN)c1cccs1")
0.124

Please give the measured K inact for this molecule: C#CC(CN)c1ccc(O)cc1 (single isomer, unassigned; (-))
0.184

Data origin: ChEMBL document CHEMBL1124234
